# target desc: S. aureus GyrB ATPase (Staphylococcus aureus, UniProt P0A0K8)
# Sequence (P0AES4 whole entry): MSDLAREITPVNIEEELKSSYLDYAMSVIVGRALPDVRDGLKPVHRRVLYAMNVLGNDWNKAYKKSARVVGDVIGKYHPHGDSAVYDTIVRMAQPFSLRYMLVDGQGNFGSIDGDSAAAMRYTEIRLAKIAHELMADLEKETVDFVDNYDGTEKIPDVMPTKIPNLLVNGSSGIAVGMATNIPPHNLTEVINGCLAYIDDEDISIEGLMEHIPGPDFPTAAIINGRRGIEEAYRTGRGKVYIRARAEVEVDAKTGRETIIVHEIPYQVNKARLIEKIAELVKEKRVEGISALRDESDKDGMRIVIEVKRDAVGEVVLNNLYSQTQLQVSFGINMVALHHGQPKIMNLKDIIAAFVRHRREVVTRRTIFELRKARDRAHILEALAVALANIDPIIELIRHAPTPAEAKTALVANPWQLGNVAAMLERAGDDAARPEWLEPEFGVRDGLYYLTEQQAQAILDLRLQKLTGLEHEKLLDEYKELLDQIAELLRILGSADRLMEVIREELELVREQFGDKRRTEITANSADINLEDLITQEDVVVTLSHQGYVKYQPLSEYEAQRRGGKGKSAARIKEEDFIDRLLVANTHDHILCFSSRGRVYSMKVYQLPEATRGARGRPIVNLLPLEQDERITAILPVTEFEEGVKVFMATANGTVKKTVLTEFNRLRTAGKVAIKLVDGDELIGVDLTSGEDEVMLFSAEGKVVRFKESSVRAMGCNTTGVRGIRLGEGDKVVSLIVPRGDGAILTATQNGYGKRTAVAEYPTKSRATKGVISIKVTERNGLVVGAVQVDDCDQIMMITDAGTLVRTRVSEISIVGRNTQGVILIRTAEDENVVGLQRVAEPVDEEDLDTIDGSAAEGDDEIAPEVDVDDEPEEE
# Sequence (P0A0K8 whole entry): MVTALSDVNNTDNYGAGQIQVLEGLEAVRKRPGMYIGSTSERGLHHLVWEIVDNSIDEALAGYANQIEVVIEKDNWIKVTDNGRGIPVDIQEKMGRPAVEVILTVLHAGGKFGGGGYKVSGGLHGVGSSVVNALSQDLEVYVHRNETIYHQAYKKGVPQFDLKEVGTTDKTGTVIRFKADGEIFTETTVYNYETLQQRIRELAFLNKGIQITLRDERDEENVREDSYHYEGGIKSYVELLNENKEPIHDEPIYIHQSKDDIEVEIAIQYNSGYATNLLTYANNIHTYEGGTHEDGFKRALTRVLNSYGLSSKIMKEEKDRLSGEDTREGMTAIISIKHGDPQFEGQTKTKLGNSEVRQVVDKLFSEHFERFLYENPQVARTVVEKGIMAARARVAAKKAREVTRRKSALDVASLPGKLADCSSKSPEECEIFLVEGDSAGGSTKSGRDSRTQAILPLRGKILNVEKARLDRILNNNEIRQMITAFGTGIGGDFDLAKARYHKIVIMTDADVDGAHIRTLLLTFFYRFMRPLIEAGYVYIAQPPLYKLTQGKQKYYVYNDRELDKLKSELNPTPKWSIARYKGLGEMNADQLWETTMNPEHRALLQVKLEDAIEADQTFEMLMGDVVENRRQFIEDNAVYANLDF
# method notes: S. aureus GyrB ATPase inhibition (ammonium molybdate/malachite green phosphate detection)
# Assay type: biochemical
# test context: compound at 1 μM; inhibition of S. aureus GyrB ATPase; read-out: Percent Inhibition (1 μM)
Structures can show the parent of a compound that is named as a salt.
metric name: inhibition at 1 µM (%)

CCNC(=O)Nc1cc(-c2nc(C(F)(F)F)cs2)c(-c2cc3c(=O)c(C(=O)O)cn(CC)c3cc2N2CCN(C)CC2)cn1; 103
CCNC(=O)Nc1cc(-c2nc(-c3ccccc3)cs2)c(-c2cc3c(=O)c(C(=O)O)cn(CCN(C)C)c3cc2OCCN2CCOCC2)cn1; 99
CCNC(=O)Nc1cc(-c2nc(C(F)(F)F)cs2)c(-c2ccc3c(c2)c(=O)c(C(=O)N(C)C)cn3CCN(C)C)cn1; 93
CCNC(=O)Nc1cc(-c2nc(C(F)(F)F)cs2)c(-c2cc3c(=O)c(C(=O)O)cn(CCN(C)C)c3cc2NCCN(C)C)cn1; 100
CCNC(=O)Nc1cc(-c2nc(C(F)(F)F)cs2)c(-c2ccc3c(c2)c(=O)c(C(=O)O)cn3[C@H]2[C@@H]3CN(C)C[C@@H]32)cn1; 108
CCNC(=O)Nc1cc(-c2nc(C(F)(F)F)cs2)c(-c2ccc3c(c2)c(=O)c(C(=O)NCCOP(=O)(O)O)cn3C(COC)COC)cn1 [Example 8, phosphate hydrochloride]; 108
CCNC(=O)Nc1cc(-c2nc(C(F)(F)F)cs2)c(-c2ccc3c(c2)c(=O)c(C(=O)OCCOC(=O)C(C)C)cn3C(COC)COC)cn1; 103
CCNC(=O)Nc1cc(-c2nc(C(F)(F)F)cs2)c(-c2ccc3c(c2)c(=O)c(C(=O)NCCCOP(=O)(O)O)cn3C(COC)COC)cn1 [Example 10, phosphate hydrochloride]; 12
CCCn1cc(C(=O)NCCCOP(=O)(O)O)c(=O)c2ccc(-c3cnc(NC(=O)NCC)cc3-c3nc(C(F)(F)F)cs3)cc21; 100
CCNC(=O)Nc1cc(-c2nc(-c3ccccc3)cs2)c(-c2cc3c(=O)c(C(=O)O)cn(C[C@H]4CCCN4CC)c3cc2OCCN(CC)CC)cn1; 102
CCNC(=O)Nc1cc(-c2nc(C(F)(F)F)cs2)c(-c2ccc3c(c2)c(=O)c(C(=O)O)cn3CCN)cn1; 112
CCNC(=O)Nc1cc(-c2nc(C(F)(F)F)cs2)c(-c2ccc3c(c2)c(=O)c(C(=O)OCCOC(=O)CC)cn3C(COC)COC)cn1; 104

* * *

# target desc: S. aureus GyrB ATPase (Staphylococcus aureus, UniProt P0A0K8)
# method notes: S. aureus GyrB ATPase inhibition (ammonium molybdate/malachite green phosphate detection)
# Type: biochemical
# test context: compound at 1 μM; inhibition of S. aureus GyrB ATPase; read-out: Percent Inhibition (1 μM)
metric name: inhibition at 1 µM (%)

CCNC(=O)Nc1cc(-c2nc(C(F)(F)F)cs2)c(-c2ccc3c(c2)c(=O)c(C(=O)O)cn3CC(C)N2CCOCC2)cn1 (stereo not drawn) [Example 56]; 101
CCNC(=O)Nc1cc(-c2nc(C(F)(F)F)cs2)c(-c2cc3c(=O)c(C(=O)O)cn([C@H](CO)CC(C)C)c3cc2F)cn1 [Example 52]; 103
CCNC(=O)Nc1cc(-c2nc(C(F)(F)F)cs2)c(-c2ccc3c(c2)c(=O)c(C(=O)O)cn3[C@H](COP(=O)(O)O)CC(C)C)cn1 [Example 7]; 111
CCNC(=O)Nc1cc(-c2nc([C@H](N)C(C)C)cs2)c(-c2ccc3c(c2)c(=O)c(C(=O)O)cn3[C@H](CO)C(C)(C)C)cn1 [Example 53]; 46
CCNC(=O)Nc1cc(-c2nc(C(F)(F)F)cs2)c(-c2ccc3c(c2)c(=O)c(C(=O)OCOC(=O)C(C)(C)C)cn3C(COC)COC)cn1 [Example 39]; 102
CCNC(=O)Nc1cc(-c2nc(C(F)(F)F)cs2)c(-c2ccc3c(c2)c(=O)c(C(=O)O)cn3[C@H](CC)COP(=O)(O)O)cn1 [Example 6]; 96

Value source: patent US20100317624A1
